Listed below: pEC50 values for each entry.
System: neurons derived from D3 embryonic stem (ES) cells
Experiment: Chemical ischemia-induced neuronal death and neuroprotection, cell culture model
Format: cell-based, mouse
Settings: Mus musculus, Neuron; read-out: EC50 of neuroprotective effect, chemical ischemia
Counter-ions that a name gives are not always drawn.
FYI, pEC50 means -log10 of a concentration in mol per litre.

Illustrative cases are given below, each with its answer.
- Molecule: "CC12CCC3C(CC[C@H]4NC(=O)CCC34C)C1CCC2C(=O)O (stereo partly shown)"
  pEC50: 6.00
- Molecule: "CC(C)(C)NC(=O)[C@H]1CC[C@H]2[C@@H]3CC[C@H]4NC(=O)C=C[C@]4(C)[C@H]3CC[C@]12C [Finasteride]"
  pEC50: 6.52
- Molecule: "C[C@]12C=CC(=O)N[C@@H]1CC[C@@H]1[C@@H]2CC[C@]2(C)[C@@H](C(=O)Nc3cc(C(F)(F)F)ccc3C(F)(F)F)CC[C@@H]12 [Dutasteride]"
  pEC50: 6.52

Now consider a different molecule.
Memo: CC12CCC3C(CC[C@H]4NC(=O)CCC34C)C1CCC2C(=O)NCCN (stereo partly shown) [AEOAA, hydrochloride] , reported pEC50: 5.30
